Taken from patent EP0188781A1.

Form field: Minimum inhibitory concentration (MIC) (one value per entry).
Tested on: Escherichia coli GN206
EXPERIMENT: Minimum inhibitory concentration (MIC) in vitro, antibacterial spectrum
Format: cell-based

{"MOLECULE": "CO/N=C(\\C(=O)N[C@@H]1C(=O)N2C(C(=O)O)=C(CSc3nc(=O)c(=O)[nH]n3C)CS[C@H]12)c1csc(N)n1 [Ceftriaxone, reference compound]", "Minimum inhibitory concentration (MIC)": 0.78}
{"MOLECULE": "CO/N=C(\\C(=O)N[C@@H]1C(=O)N2C(C(=O)O)=C(CSc3nc(=O)c(O)nn3C)CO[C@H]12)c1csc(N)n1 [Compound No. 3]", "Minimum inhibitory concentration (MIC)": 3.13}
{"MOLECULE": "C[C@@H]1O[C@@H]2[C@H](NC(=O)C(NC=O)c3csc(N)n3)C(=O)N2C(C(=O)O)=C1CSc1nc(=O)c(O)nn1C (stereo partly drawn) [Compound No. 6]", "Minimum inhibitory concentration (MIC)": 1.56}

---

Tested on: Escherichia coli NIHJ JC-2
EXPERIMENT: Minimum inhibitory concentration (MIC) in vitro, antibacterial spectrum
Format: cell-based
ENDPOINT: Minimum inhibitory concentration (MIC)

{"MOLECULE": "C[C@@H]1O[C@@H]2[C@H](NC(=O)C(NC=O)c3csc(N)n3)C(=O)N2C(C(=O)O)=C1CSc1nc(=O)c(O)nn1C (stereo partly drawn)", "EXPERIMENTAL RESULT": 0.10}
{"MOLECULE": "CO[C@@]1(NC(=O)C(C(=O)O)c2ccc(O)cc2)C(=O)N2C(C(=O)O)=C(CSc3nnnn3C)CO[C@@H]21 (stereo partly drawn) [Latamoxef, reference compound]", "EXPERIMENTAL RESULT": 0.10}
{"MOLECULE": "CO/N=C(\\C(=O)N[C@@H]1C(=O)N2C(C(=O)O)=C(CSc3nc(=O)c(O)nn3C)[C@H](C)O[C@H]12)c1csc(N)n1", "EXPERIMENTAL RESULT": 0.10}
{"MOLECULE": "CCO/N=C(\\C(=O)N[C@@H]1C(=O)N2C(C(=O)O)=C(CSc3nc(=O)c(O)nn3C)CO[C@H]12)c1csc(N)n1", "EXPERIMENTAL RESULT": 0.10}
{"MOLECULE": "CCN1CCN(C(=O)NC(C(=O)N[C@@H]2C(=O)N3C(C(=O)O)=C(CSc4nc(=O)c(O)nn4C)[C@H](C)O[C@H]23)c2csc(N)n2)C(=O)C1=O (single isomer, unassigned)", "EXPERIMENTAL RESULT": 0.10}
{"MOLECULE": "CCO/N=C(\\C(=O)N[C@@H]1C(=O)N2C(C(=O)O)=C(CSc3nc(=O)c(O)nn3C)[C@H](C)O[C@H]12)c1csc(N)n1", "EXPERIMENTAL RESULT": 0.39}

---

Test system: Streptococcus faecalis W-74
EXPERIMENT: Minimum inhibitory concentration (MIC) in vitro, antibacterial spectrum
Assay type: cell-based
Entries and their measured Minimum inhibitory concentration (MIC) follow.

{"COMPOUND": "Cn1nc(O)c(=O)nc1SCC1=C(C(=O)O)N2C(=O)[C@@H](NC(=O)C(NC=O)c3csc(N)n3)[C@H]2OC1 (stereo partly drawn) [Compound No. 8]", "Minimum inhibitory concentration (MIC)": 50}
{"COMPOUND": "C[C@@H]1O[C@@H]2[C@H](NC(=O)C(NC=O)c3csc(N)n3)C(=O)N2C(C(=O)O)=C1CSc1nc(=O)c(O)nn1C (stereo partly drawn) [Compound No. 6]", "Minimum inhibitory concentration (MIC)": 50}
{"COMPOUND": "CO/N=C(\\C(=O)N[C@@H]1C(=O)N2C(C(=O)O)=C(CSc3nc(=O)c(=O)[nH]n3C)CS[C@H]12)c1csc(N)n1 [Ceftriaxone, reference compound]", "Minimum inhibitory concentration (MIC)": 100}
{"COMPOUND": "CO[C@@]1(NC(=O)C(C(=O)O)c2ccc(O)cc2)C(=O)N2C(C(=O)O)=C(CSc3nnnn3C)CO[C@@H]21 (stereo partly drawn) [Latamoxef, reference compound]", "Minimum inhibitory concentration (MIC)": 100}
{"COMPOUND": "CO/N=C(\\C(=O)N[C@@H]1C(=O)N2C(C(=O)O)=C(CSc3nc(=O)c(O)nn3C)[C@H](C)O[C@H]12)c1csc(N)n1 [Compound No. 1]", "Minimum inhibitory concentration (MIC)": 6.25}
{"COMPOUND": "CCO/N=C(\\C(=O)N[C@@H]1C(=O)N2C(C(=O)O)=C(CSc3nc(=O)c(O)nn3C)[C@H](C)O[C@H]12)c1csc(N)n1 [Compound No. 2]", "Minimum inhibitory concentration (MIC)": 6.25}
